# System: MCF-7 cells
# PROTOCOL_DESCRIPTION: MTT anti-proliferative assay, MCF-7
# Format: cell-based, human
# CONDITION_LABEL: Homo sapiens, MCF7; MTT, 48 h treatment; average ± SD of three independent experiments; read-out: IC50 MCF-7
QUANTITY_NAME: IC50 (µM)
Answers are plain numbers, in µM.

Q. Given the entry C[C@@H]1CC[C@@]2(OC1)O[C@H]1C[C@H]3[C@@H]4CC=C5C[C@@H](O)CC[C@]5(C)[C@H]4CC[C@]3(C)[C@H]1[C@@H]2C [Diosgenin] , what IC50 was observed with MCF-7 cells?
A. 23.9

* * *

# Tested on: HepG2 cells
# PROTOCOL_DESCRIPTION: MTT anti-proliferative assay, HepG2
# Format: cell-based, human
# CONDITION_LABEL: MTT, 48 h treatment; average ± SD of three independent experiments; read-out: IC50 HepG2
QUANTITY_NAME: IC50 (µM)
Give bare numbers, in µM.

Q. Please give the measured IC50 for this molecule: "C[C@@H]1CC[C@@]2(OC1)O[C@H]1C[C@H]3[C@@H]4CC=C5C[C@@H](O)CC[C@]5(C)[C@H]4CC[C@]3(C)[C@H]1[C@@H]2C"
A. 33.9

* * *

# System: GES-1 cells
# PROTOCOL_DESCRIPTION: MTT cytotoxicity assay, normal GES-1
# Format: cell-based, human
Kindly state SI for each of the entries shown.
Numbers only.

Here are 3 compounds together with their reported answers.
| COMPOUND | SUBJECT_OF_TEST | SI |
| --- | --- | --- |
| CC(=O)OC1CCC2(C)C(=CCC3C2CCC2(C)C3CC3OC(CCC(C)C(=O)N4CCN(C(=O)c5ccc(N(CCCl)CCCl)cc5)CC4)C(C)C32)C1 (stereo not shown) [Compound 14e] | GES-1 cells | 3.05 |
| CO[C@@]12[C@H](COC(N)=O)C3=C(C(=O)C(C)=C(N)C3=O)N1C[C@@H]1N[C@@H]12 [Mitomycin C, reference compound] | GES-1 cells | 0.72 |
| CC(=O)OC1CCC2(C)C(=CCC3C2CCC2(C)C3CC3OC(CCC(C)C(=O)NCCCNC(=O)c4ccc(N(CCCl)CCCl)cc4)C(C)C32)C1 (stereo not shown) [Compound 14b] | GES-1 cells | 1.86 |

We now examine a further compound.
Q. Given the entry CC(CCC1OC2CC3C4CC=C5CC(O)CCC5(C)C4CCC3(C)C2C1C)C(=O)NCCNC(=O)c1ccc(N(CCCl)CCCl)cc1 (stereo not shown) [Compound 15a] , what SI was observed with GES-1 cells?
A. 6.28

* * *

# System: GES-1 cells
# PROTOCOL_DESCRIPTION: MTT cytotoxicity assay, normal GES-1
# Format: cell-based, human
QUANTITY_NAME: SI

Here are 2 compounds together with their reported answers.
| COMPOUND | SI |
| --- | --- |
| CC(CCC1OC2CC3C4CC=C5CC(O)CCC5(C)C4CCC3(C)C2C1C)C(=O)N1CCCN(C(=O)c2ccc(N(CCCl)CCCl)cc2)CC1 (stereo not drawn) [Compound 15f] | >5.28 |
| CC(CCC1OC2CC3C4CC=C5CC(O)CCC5(C)C4CCC3(C)C2C1C)C(=O)NCCCNC(=O)c1ccc(N(CCCl)CCCl)cc1 (stereo not drawn) [Compound 15b] | >7.14 |

Q. Please give the measured SI for this compound: CC(=O)OC1CCC2(C)C(=CCC3C2CCC2(C)C3CC3OC(CCC(C)C(=O)N4CCCN(C(=O)c5ccc(N(CCCl)CCCl)cc5)CC4)C(C)C32)C1 (stereo not drawn) [Compound 14f]
A. >44.25
